src = the supplement of paper PMC6757056

B1: library; a variant is named by its letters at N, in order (parent)
chain: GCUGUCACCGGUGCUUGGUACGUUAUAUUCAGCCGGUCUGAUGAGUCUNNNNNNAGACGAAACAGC

Variants of: B1
Assay Overview: normalized RNA/DNA level without ligand (relative to sTRSVctl = 100) (log10 (% of sTRSVctl)); HEK293T overexpressing SLC46A1; higher = less ribozyme self-cleavage, higher mRNA level
Measurement Parameters: without (6R,S)-folinic acid; ligand present: no
Measurement Kind: normalized RNA/DNA level without ligand (log10)

> print(dat)
    mutation.label  recorded.result
 1          ACUUUU             2.04
 2          CAAGGG             1.88
 3          AUAUUC             2.03
 4          GGUGGC             1.98
 5          GUUAUG             1.93
 6          AUACGC             2.01
 7          CGCUAG             2.01
 8          AGCGAC             1.99
 9          CAGCUA             2.02
10          UAAGUA              1.9
11          UUAACA                2
12          UAACUG             1.85
13          ACAAGC             2.03
14          CCUCCG             2.07
15          UACGCG             1.79
16          GGUGCC             2.03
17          ACAAUC             2.04
18          UACGAU             1.95
19          CACAAC                2
20          UGAAGC             1.96
21          UCCCCA             2.05
22          GAUGCU             1.99
